Source: patent US20150104459A1

Tested on: recombinant soluble homotrimeric HA of A/swine/Ontario/01911-2/99 (H4N6) (Influenza A virus A/Swine/Ontario/01911-2/99 (H4N6))
Test description: HA microarray, BCC supernatant
Applied conditions: remark: other sources report otherwise
Property label: Trimeric HA Binding RLU (RLU)
Please give a number only; it is taken to be in RLU.

| Binder | Trimeric HA Binding RLU (RLU) |
| --- | --- |
| TCN-537 (3194_D21) (antibody, V domains shown) VH: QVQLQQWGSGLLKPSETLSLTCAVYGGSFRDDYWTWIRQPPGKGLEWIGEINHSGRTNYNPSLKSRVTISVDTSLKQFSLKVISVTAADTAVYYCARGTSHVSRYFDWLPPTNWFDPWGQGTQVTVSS VL: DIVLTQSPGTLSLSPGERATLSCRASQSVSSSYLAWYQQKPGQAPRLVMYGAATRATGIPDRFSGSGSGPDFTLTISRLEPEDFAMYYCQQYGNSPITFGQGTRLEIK | 19 |

Would you kindly look at the next entry?
Problem: Tell us which Trimeric HA Binding RLU value is on record for TCN-532 (5262_H18) (antibody, V domains shown) VH: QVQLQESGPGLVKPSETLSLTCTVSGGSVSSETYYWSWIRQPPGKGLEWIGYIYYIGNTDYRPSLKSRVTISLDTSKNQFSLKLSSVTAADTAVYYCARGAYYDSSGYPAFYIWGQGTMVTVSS VL: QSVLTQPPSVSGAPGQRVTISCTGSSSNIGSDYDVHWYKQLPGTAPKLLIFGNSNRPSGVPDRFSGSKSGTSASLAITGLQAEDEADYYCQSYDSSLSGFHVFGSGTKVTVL
Result: 119
